Test system: Streptococcus pneumoniae
method_notes: Antibacterial activity against Streptococcus pneumoniae SV1 SP3 by micro-broth method
Type: functional
Hi there, I'd appreciate the recorded MIC for every entry that follows.
Number plus unit, in that order.

QUERY: Which value of MIC has been reported for CC(=O)NC[C@H]1CN(c2ccc3c(c2)CCCc2c(-c4snnc4C)n[nH]c2-3)C(=O)O1 in the records?
RESULT: 0.25 µg/mL

QUERY: Recorded MIC of Cc1cc(C(=O)NC[C@H]2CN(c3ccc4c(c3)CCCc3c(-c5cc(C)on5)n[nH]c3-4)C(=O)O2)no1 , please.
RESULT: 1 µg/mL

QUERY: Need MIC of CC(=O)NC[C@H]1CN(c2ccc3c(c2)CCCc2c(-c4cc(C)on4)n[nH]c2-3)C(=O)O1 , thanks.
RESULT: 0.25 µg/mL

QUERY: I am curious: what MIC value has been reported for CC(=O)NC[C@H]1CN(c2ccc3c(c2)CCCc2c(-c4csc(-c5ccccc5)n4)n[nH]c2-3)C(=O)O1 ?
RESULT: 0.5 µg/mL

----------
Tested on: Staphylococcus aureus
method_notes: Antibacterial activity against Staphylococcus aureus UC76 SA1 by micro-broth method
Assay type: functional
property: MIC (µg/mL)
Give the value in µg/mL but do not write µg/mL after it.

QUERY: // lookup MIC for CC(=O)NC[C@H]1CN(c2ccc3c(c2)CCCc2c(-c4ccc(F)cc4)n[nH]c2-3)C(=O)O1
RESULT: 0.5

QUERY: Using the record for CC(=O)NC[C@H]1CN(c2ccc3c(c2)CCCc2c(-c4ccc(C#N)cc4)n[nH]c2-3)C(=O)O1 , report its MIC.
RESULT: 0.5

QUERY: Please give the measured MIC for this molecule: CC(=O)NC[C@H]1CN(c2ccc3c(c2)CCCc2c(-c4ccccc4)n[nH]c2-3)C(=O)O1
RESULT: 0.5

QUERY: Requested field: MIC. Item: CC(=O)NC[C@H]1CN(c2cc(F)c3c(c2)CCCc2cn[nH]c2-3)C(=O)O1
RESULT: 2

QUERY: Tell me the measured MIC of O=C(NC[C@H]1CN(c2ccc3c(c2)CCCc2c(-c4ccoc4)n[nH]c2-3)C(=O)O1)c1ccoc1 , please.
RESULT: 2

QUERY: So what's the measured MIC for this one? CCOC(=O)NC[C@H]1CN(c2ccc3c(c2)CCCc2c(-c4ccno4)n[nH]c2-3)C(=O)O1
RESULT: 1

QUERY: Any idea what MIC was measured for O=C(NC[C@H]1CN(c2ccc3c(c2)CCCc2c(-c4ccno4)n[nH]c2-3)C(=O)O1)c1ccno1 ?
RESULT: 1

QUERY: // lookup MIC for O=C(NC[C@H]1CN(c2ccc3c(c2)CCCc2c(-c4ccno4)n[nH]c2-3)C(=O)O1)C1CC1
RESULT: 1

QUERY: What does the record list as MIC for CC(=O)NC[C@H]1CN(c2ccc3c(c2)CCCc2c(-c4cscn4)n[nH]c2-3)C(=O)O1 ?
RESULT: 1

QUERY: Which measured MIC value corresponds to O=C(NC[C@H]1CN(c2ccc3c(c2)CCCc2c(-c4cccnc4)n[nH]c2-3)C(=O)O1)c1cccnc1 ?
RESULT: 8

QUERY: Param item = CC(=O)NC[C@H]1CN(c2ccc3c(c2)CCCc2c(-c4cc(C)on4)n[nH]c2-3)C(=O)O1 ; retrieve measured MIC.
RESULT: 0.5

QUERY: State the recorded MIC for this entry: NC[C@H]1CN(c2ccc3c(c2)CCCc2c(-c4ccno4)n[nH]c2-3)C(=O)O1
RESULT: 16

QUERY: Fill in: MIC of CC(=O)NC[C@H]1CN(c2ccc3c(c2)CCCc2c(C)n[nH]c2-3)C(=O)O1 is ___
RESULT: 1

QUERY: I am curious: what MIC value has been reported for CCCc1n[nH]c2c1CCCc1cc(N3C[C@H](CNC(C)=O)OC3=O)ccc1-2 ?
RESULT: 2

QUERY: Requested field: MIC. Item: CC(=O)NC[C@H]1CN(c2ccc3c(c2)CCCc2c(-c4cccnc4)n[nH]c2-3)C(=O)O1
RESULT: 1

QUERY: Look at this molecule and give its reported MIC. O=C(NC[C@H]1CN(c2ccc3c(c2)CCCc2c(-c4ccno4)n[nH]c2-3)C(=O)O1)c1cccnc1
RESULT: 2

QUERY: Using the record for O=C(NC[C@H]1CN(c2ccc3c(c2)CCCc2c(-c4ccno4)n[nH]c2-3)C(=O)O1)C(F)F , report its MIC.
RESULT: 0.5

----------
For each record, write down the corresponding MIC.
Test system: Streptococcus pneumoniae
method_notes: Antibacterial activity against Streptococcus pneumoniae SV1 SP3 by micro-broth method
Assay type: functional
Write it as a number; the unit µg/mL goes unstated.

QUERY: // lookup MIC for CC(C)C(=O)NC[C@H]1CN(c2ccc3c(c2)CCCc2c(C(C)C)n[nH]c2-3)C(=O)O1
RESULT: 4

QUERY: Please report the recorded MIC for CCCC(=O)NC[C@H]1CN(c2ccc3c(c2)CCCc2c(CCC)n[nH]c2-3)C(=O)O1 .
RESULT: 1

QUERY: Value lookup for MIC; key = CC(=O)NC[C@H]1CN(c2cc(F)c3c(c2)CCCc2c(-c4cc(C)n(C)n4)n[nH]c2-3)C(=O)O1
RESULT: 1

QUERY: So what does the record say about MIC for CC(=O)NC[C@H]1CN(c2cc(F)c3c(c2)CCCc2c(-c4ccno4)n[nH]c2-3)C(=O)O1 ?
RESULT: 0.5

QUERY: GET /values?readout=MIC&item= CC(=O)NC[C@H]1CN(c2ccc3c(c2)CCCc2c(-c4nnc(-c5ccccc5)o4)n[nH]c2-3)C(=O)O1
RESULT: 0.25

QUERY: Which value of MIC has been reported for CC(=O)NC[C@H]1CN(c2cc(F)c3c(c2)CCCc2cn[nH]c2-3)C(=O)O1 in the records?
RESULT: 1

QUERY: State the recorded MIC for this entry: CC(=O)NC[C@H]1CN(c2ccc3c(c2)CCCc2c(-c4ccc(F)cc4)n[nH]c2-3)C(=O)O1
RESULT: 0.25

QUERY: Recorded MIC for CCOC(=O)NC[C@H]1CN(c2ccc3c(c2)CCCc2c(-c4ccno4)n[nH]c2-3)C(=O)O1 , please?
RESULT: 0.5

QUERY: Quick check: MIC of CC(=O)NC[C@H]1CN(c2ccc3c(c2)CCCc2cn[nH]c2-3)C(=O)O1 ?
RESULT: 0.25

QUERY: # get_value(readout='MIC', item= CC(=O)NC[C@H]1CN(c2ccc3c(c2)CCCc2c(C(C)C)n[nH]c2-3)C(=O)O1 )
RESULT: 0.5

QUERY: Dear colleague, I am looking for the recorded MIC of the following compound: CC(=O)NC[C@H]1CN(c2ccc3c(c2)CCCc2c(-c4cccnc4)n[nH]c2-3)C(=O)O1
RESULT: 0.125

QUERY: Reported MIC for O=C(NC[C@H]1CN(c2ccc3c(c2)CCCc2c(-c4cccnc4)n[nH]c2-3)C(=O)O1)c1cccnc1 : what is it?
RESULT: 1

QUERY: Fill in the blank: the reported MIC of CC(=O)NC[C@H]1CN(c2ccc3c(c2)CCCc2c(C(F)(F)F)n[nH]c2-3)C(=O)O1 is ____.
RESULT: 0.25

QUERY: Name the recorded MIC for CC(=O)NC[C@H]1CN(c2cc(F)c3c(c2)CCCc2c(-c4ccco4)n[nH]c2-3)C(=O)O1 .
RESULT: 1

QUERY: Any idea what MIC was measured for O=C(NC[C@H]1CN(c2ccc3c(c2)CCCc2c(-c4ccno4)n[nH]c2-3)C(=O)O1)c1ccno1 ?
RESULT: 0.5

QUERY: # lookup: MIC of CC(=O)NC[C@H]1CN(c2ccc3c(c2)CCCc2c(-c4ccc(C#N)cc4)n[nH]c2-3)C(=O)O1
RESULT: 0.25

QUERY: What does the record list as MIC for O=C(NC[C@H]1CN(c2ccc3c(c2)CCCc2c(-c4cc5ccccc5o4)n[nH]c2-3)C(=O)O1)c1cc2ccccc2o1 ?
RESULT: 8

QUERY: // returns reported MIC for input CCCc1n[nH]c2c1CCCc1cc(N3C[C@H](CNC(C)=O)OC3=O)ccc1-2
RESULT: 0.5

QUERY: For CC(=O)NC[C@H]1CN(c2ccc3c(c2)CCCc2c(-c4ccncc4)n[nH]c2-3)C(=O)O1 , what is its reported MIC?
RESULT: 0.25

----------
System: Staphylococcus aureus
method_notes: Antibacterial activity against Staphylococcus aureus UC76 SA1 by micro-broth method
Assay type: functional
property: MIC (µg/mL)
Value expressed in µg/mL; do not type the unit.

QUERY: Find MIC (Staphylococcus aureus) for the entry CC(=O)NC[C@H]1CN(c2ccc3c(c2)CCCc2c(-c4ccc(O)cc4)n[nH]c2-3)C(=O)O1
RESULT: 1

QUERY: Under Staphylococcus aureus: MIC value of CC(=O)NC[C@H]1CN(c2ccc3c(c2)CCCc2c(-c4cc(C)n(C)n4)n[nH]c2-3)C(=O)O1 ?
RESULT: 0.5

QUERY: Field: MIC (Staphylococcus aureus). Entry: CCCC(=O)NC[C@H]1CN(c2ccc3c(c2)CCCc2c(CCC)n[nH]c2-3)C(=O)O1
RESULT: 2
